target.system: HCV NS3 helicase NS3h_1b(con1) (Hepatitis C virus genotype 1b)
Construct: truncated C-terminally His-tagged NS3 proteins lacking the N-terminal protease, called NS3h; His-tag (C); made in house
procedure.details: MBHA screen of NCI mechanistic set library at 20 μM (percent inhibition, compound interference)
Format: biochemical
condition.description: compounds at 20 μM, MBHA with DNA substrate; assay interference calculated with Equation 2
Output label 1 for Int.* (Ratio) (Interference) not less than 0.9 Ratio; output label 0 otherwise.

Given the entry "CCC[CH2][Sn]1([CH2]CCC)[S]CC[N]1S(=O)(=O)c1ccc(C)cc1" , answer whether its Int.* (Ratio) (Interference) meets or surpasses 0.9 Ratio.
label 0

Reported Int.* (Ratio) (Interference) at or above 0.9 Ratio? "C[C@@H]1CCOC(=O)/C=C/C=C\C(=O)O[C@@H]2C[C@H]3O[C@@H]4[C@@H]5O[C@]5(C)[C@H](O)C[C@]4(COC(=O)[C@H]1O)[C@]2(C)[C@@]31CO1"
label 1

API: above_or_equal(metric=Int.* (Ratio) (Interference), cutoff=0.9 Ratio) for item "O/N=C(\CC(O)(C(F)(F)F)C(F)(F)F)c1cccc(Cl)c1"
label 1

Decide: is the reported value of Int.* (Ratio) (Interference) for CCCCCCCCCCCCCCCCOCC(O)CO (stereo not shown) equal to or greater than 0.9 Ratio?
label 1

Reported Int.* (Ratio) (Interference) at or above 0.9 Ratio? "CC(C)c1cccc(O)c(=O)c1"
label 1

Does COc1cc(NC(C)CCCN)c2ncccc2c1.O=P(O)(O)O.O=P(O)(O)O (stereo not shown) have a reported Int.* (Ratio) (Interference) of at least 0.9 Ratio?
label 1

Assess whether reported Int.* (Ratio) (Interference) for CC1=CC23C(COC(=O)C24CO4)C(C(=O)O)=CC3C1C.NCc1ccccc1 (stereo not shown) sits at 0.9 Ratio or higher.
label 1

Determine whether measured Int.* (Ratio) (Interference) meets or exceeds 0.9 Ratio for "COc1ccc(-c2csc(=[N+]3CCCCC3)s2)cc1.O=S(=O)(O)O"
label 1

Hello, I need to know if "COc1c2c(c(OC)c3c1c(=O)c1ccccc1n3C)OCO2" has measured Int.* (Ratio) (Interference) not below 0.9 Ratio. Thanks!
label 1

Assess whether reported Int.* (Ratio) (Interference) for "COc1ccc(O)c2c(=O)c3c(OC)cc4c(c3oc12)[C@@H]1C=CO[C@@H]1O4" sits at 0.9 Ratio or higher.
label 0

###

target.system: HCV NS3 helicase NS3h_1b(con1) (Hepatitis C virus genotype 1b, UniProt Q9WMX2)
Construct: truncated C-terminally His-tagged NS3 proteins lacking the N-terminal protease, called NS3h; His-tag (C); made in house
Sequence (Q9WMX2 1192-1657): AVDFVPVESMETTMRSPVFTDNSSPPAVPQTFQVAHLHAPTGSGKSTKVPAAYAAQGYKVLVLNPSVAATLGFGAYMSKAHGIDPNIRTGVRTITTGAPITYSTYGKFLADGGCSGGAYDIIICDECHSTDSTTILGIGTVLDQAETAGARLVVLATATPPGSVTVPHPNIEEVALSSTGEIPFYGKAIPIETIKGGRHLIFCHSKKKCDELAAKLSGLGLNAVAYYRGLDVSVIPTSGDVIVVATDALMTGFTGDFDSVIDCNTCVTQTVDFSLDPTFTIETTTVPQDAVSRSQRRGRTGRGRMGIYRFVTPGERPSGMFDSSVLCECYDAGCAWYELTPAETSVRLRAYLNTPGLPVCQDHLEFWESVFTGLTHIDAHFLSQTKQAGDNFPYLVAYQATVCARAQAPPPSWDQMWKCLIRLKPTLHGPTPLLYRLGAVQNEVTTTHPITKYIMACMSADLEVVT
procedure.details: MBHA screen of NCI mechanistic set library at 20 μM (percent inhibition, compound interference)
Type: biochemical
condition.description: compounds at 20 μM, MBHA with a DNA substrate; calculated from Equation 1
Would you kindly list Inh. (%) (Inhibition) for each of these compounds?
Expressed in %, but write only the number.

// query Inh. (%) (Inhibition) value for entry COC1=C(N)C(=O)c2nc(-c3nc(C(=O)O)c(C)c(-c4ccc(OC)c(OC)c4O)c3N)ccc2C1=O [Compound 45383]
−19.1

// Inh. (%) (Inhibition) lookup, key: COc1ccc(/C=C/c2cc(OC)c(OC)c(OC)c2)cc1OP(=O)(O)O [Compound 643812]
−5.7

What value of measured Inh. (%) (Inhibition) is listed for CN(C)CCCN1c2ccc3ccccc3c2Sc2cccc(Cl)c21 [Compound 24113] ?
11.0

# input compound: O=c1[nH]c2ccc(O)cc2o1 [Compound 603719] ; wanted: its Inh. (%) (Inhibition)
−5.7

Looking for the measured Inh. (%) (Inhibition) of CCOC(=O)C1=C(O)CSC1=Nc1ccc(N=C2SCC(O)=C2C(=O)OCC)cc1 [Compound 623746] , can you help?
−29.6

Request the reported Inh. (%) (Inhibition) associated with COC(=O)c1ccccc1OCc1cc(=O)oc2ccc(C)cc12 [Compound 623637]
−3.5

Form field: reported Inh. (%) (Inhibition) of CC[C@H](C)C(=O)O[C@H]1CCC=C2C=C[C@H](C)[C@H](CC[C@@H]3C[C@@H](O)CC(=O)O3)[C@H]21 [Compound 281245]
−3.7

Please give the measured Inh. (%) (Inhibition) for this compound: CC(C)c1oc(=O)cc2c1[C@@H](O)[C@H]1OC(=O)[C@@]3(C)[C@@H](O)[C@H]4O[C@H]4[C@@]2(C)[C@@H]13 [Compound 211500]
10.6

###

target.system: HCV NS3 helicase NS3h_1b(con1) (Hepatitis C virus genotype 1b, UniProt Q9WMX2)
Construct: truncated C-terminally His-tagged NS3 proteins lacking the N-terminal protease, called NS3h; His-tag (C); made in house
procedure.details: MBHA screen of NCI mechanistic set library at 20 μM (percent inhibition, compound interference)
Assay type: biochemical
condition.description: compounds at 20 μM, MBHA with DNA substrate; calculated from Equation 1
outcome.measure: Inh. (%) (Inhibition)
Write the answer as a number in %, unit excluded.

Using the record for Cc1ccc([S+](c2ccccc2)c2cc(C)ccc2C)cc1.O=C(OC(C(=O)[O-])C(OC(=O)c1ccccc1)C(=O)O)c1ccccc1 (centres unmarked) , report its Inh. (%) (Inhibition).
−1.8

Which Inh. (%) (Inhibition) is reported for this compound? "C1CN(c2nnc(N3CCC3)nn2)C1"
−11.6

Field request: Inh. (%) (Inhibition) | item: OC(CN1CCCCC1)c1ccc(/C=C/c2ccc(Cl)cc2)cc1 (centres unmarked)
−17.0

Would you mind telling me what Inh. (%) (Inhibition) value was observed for "CCCCn1c2c(n(CCCC)c1=S)-c1c(n(CCCC)c(=S)n1CCCC)SSSS2" ?
−16.2

// Inh. (%) (Inhibition) lookup, key: N#CC1(C#N)C2C=CC(c3coc4cccc2c34)C1(C#N)C#N (centres unmarked)
0.8

For the compound shown here, CC[C@@]1(O)C[C@H](OC2CC(N(C)C)C(O)C(C)O2)c2c(O)c3c(c(O)c2[C@H]1OC1CC(N(C)C)C(O)C(C)O1)C(=O)c1cccc(O)c1C3=O (some centres unmarked) , give the reported Inh. (%) (Inhibition).
47.9

Return reported Inh. (%) (Inhibition); argument: N#CC(NCc1cccc(CNC(C#N)c2ccccc2)c1)c1ccccc1 (centres unmarked)
−2.0

# Inh. (%) (Inhibition) lookup, item N#CC1CC(c2ccccc2)Nc2cc(Cl)ccc2N1 (centres unmarked)
2.3

# get_value(readout='Inh. (%) (Inhibition)', item= CON(C)C(=O)C1CCCO1 (centres unmarked) )
13.3

Could you share which Inh. (%) (Inhibition) value was measured for "CC1=C(O)c2ccccc2C(=O)C1=O" ?
2.5

Suppose we examine the compound "CCCn1c(=O)c2ccccc2[n+]2c(-c3ccc([N+](=O)[O-])cc3)csc12.[Br-]" ; what Inh. (%) (Inhibition) value has been reported?
−15.1

// returns reported Inh. (%) (Inhibition) for input CCN(CC)CCCC(C)Nc1c2ccc(Cl)cc2nc2ccc(OC)cc12.Cl.Cl (centres unmarked)
55.1

Report Inh. (%) (Inhibition) for "Cc1cc(N)c2ccccc2[n+]1CCCCCCCCCC[n+]1c(C)cc(N)c2ccccc21.[Cl-].[Cl-]" please.
60.4

Consider the compound C=C1C(=O)OC2/C=C(/CO)[C@@H](OC(C)=O)C[C@H](O)/C(C)=C\[C@@H](OC(=O)[C@@H](C)CC)[C@@H]12 (some centres unmarked) and give its measured Inh. (%) (Inhibition).
5.1

Look up Inh. (%) (Inhibition): "Cc1cc2cc3cc(C)c(N)cc3nc2cc1N"
31.8

Recorded Inh. (%) (Inhibition) of CC(=O)OC1CC(n2cc(F)c(=O)[nH]c2=O)OC1CO (centres unmarked) , please.
3.5

What value of measured Inh. (%) (Inhibition) is listed for "CS(=O)(=O)c1nc(N)nc2nc[nH]c12" ?
4.3

###

Would you mind telling me the reported pIC50 of each entry?
target.system: NS3h_1b (Hepatitis C virus genotype 1b, UniProt Q9WMX2)
Construct: truncated C-terminally His-tagged NS3 proteins lacking the N-terminal protease, called NS3h; His-tag (C)
procedure.details: ATPase assay without RNA
Scale: negative log10 of molar concentration, which is what pIC50 denotes.

What value of pIC50 has been recorded for this entry: "Cc1ccc2nc(-c3ccc4nc(-c5ccc6nc(-c7ccc8nc(-c9ccc(N)cc9)sc8c7)sc6c5)sc4c3)sc2c1S(=O)(=O)O"
4.37

Look at this molecule and give its reported pIC50. "Cc1ccc2nc(-c3ccc4nc(-c5ccc(NC(=O)c6ccc(C(C)(C)C)cc6)cc5)sc4c3)sc2c1S(=O)(=O)O"
3.82

# pIC50 lookup, item "Cc1ccc2nc(-c3ccc4nc(-c5ccc(NC(=O)c6cc(C(F)(F)F)ccc6F)cc5)sc4c3)sc2c1S(=O)(=O)O"
4.21

Fill in: pIC50 of "Cc1ccc2nc(-c3ccc4nc(-c5ccc(NC(=O)c6ccc(C(F)(F)F)cc6)cc5)sc4c3)sc2c1S(=O)(=O)O" is ___
4.62

What does the data say about its pIC50? Entry: "Cc1ccc2nc(-c3ccc4nc(-c5ccc(NC(=O)c6ccc(Cl)c(Cl)c6)cc5)sc4c3)sc2c1S(=O)(=O)O"
4.36

Look up pIC50: "Cc1ccc2nc(-c3ccc4nc(-c5ccc(NC(=O)c6cc(C(F)(F)F)cc(C(F)(F)F)c6)cc5)sc4c3)sc2c1S(=O)(=O)O"
3.85
